- ASSAY_METHOD_TEXT: qHTS RealTime-Glo MT Cell Viability Assay in HepG2 cells - 40 hour (AID 1224870); note: % is set by controls: 0 for no effect and ±100 for the full control effect; nearly all actives have a fitted effect of over 50% in size
- CONDITION_INFO: RealTime-Glo luminescence; series mostly up to 76.8 µM
Records with an inconclusive call do not appear. Calls of active or inactive are those of the source. Calls come from the whole dose curve; as a rule, active = well fitted cell-killing curve with a large enough effect in the repeat runs; inconclusive = weak or mixed curves, or effect the other way; inactive = flat fitted curve, though single readings scatter.
EXPERIMENTAL_READOUT: outcome

Worked set:
Task item: Requested field: outcome. Item: CCOP(=S)(OCC)Oc1ccc(Cl)cc1Cl
Reply: inactive

Task item: Thanks! And CC(C)(C)C(=O)Cl ?
Reply: inactive

Task item: Thanks! And c1ccc2c(c1)CCNC2 ?
Reply: inactive

Task item: Thanks! And N#CN=C1SCCN1Cc1ccc(Cl)nc1 ?
Reply: inactive

Task item: Thanks! And C1CN2CCC1CC2 ?
Reply: inactive

Task item: Thanks! And O=C(Cl)C(Cl)(Cl)Cl ?
Reply: inactive

Others:
Task item: Requested field: outcome. Item: [O-][Br+2]([O-])O
Reply: inactive

Task item: Thanks! And O=C(O)C(F)(F)C(F)(F)C(F)(F)C(F)(F)C(F)(F)C(F)(F)F ?
Reply: inactive

Task item: Thanks! And CC1N=C(N)OC1c1ccccc1 (stereo unspecified) ?
Reply: inactive

Task item: Thanks! And CCCCCCCC(=O)Cl ?
Reply: inactive

Task item: Thanks! And N#CC(Br)(Br)C(N)=O ?
Reply: inactive

Task item: Thanks! And C=CCc1cc(OC)c2c(c1)OCO2 ?
Reply: inactive

Task item: Thanks! And COP(=O)(OC)O/C(C)=C/C(=O)N(C)C ?
Reply: inactive

Task item: Thanks! And CCOc1cc(OP(=S)(OC)OC)nc(CC)n1 ?
Reply: inactive

* * *

- ASSAY_METHOD_TEXT: qHTS assay to identify small molecule antagonists of the estrogen receptor alpha (ER-alpha) signaling pathway using the BG1 cell line (AID 743080);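 note: BG1 cells stimulated with 17beta-estradiol alongside compound; nearly all actives have a fitted effect of over 25% in size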; note: potency is the fitted concentration of half-maximal effect
- CONDITION_INFO: BG1Luc4E2 ERE-luciferase antagonist mode, luminescence; series mostly up to 70.3 µM
Inconclusive results are not listed. Active and inactive are the calls of the source. Calls follow the shape of the full dose curve.
EXPERIMENTAL_READOUT: Potency

Worked set:
Task item: Requested field: Potency. Item: Cc1ccc(Cl)c(O)c1
Reply: inactive

Task item: Thanks! And O=C(Cl)C(Cl)(Cl)Cl ?
Reply: inactive

Task item: Thanks! And CC(C)(C1CCC(O)CC1)C1CCC(O)CC1 (stereo not given) ?
Reply: inactive

Task item: Thanks! And COc1ccccc1OC ?
Reply: inactive

Below: the item to evaluate.
Task item: Requested field: Potency. Item: O=C1C2CC=CCC2C(=O)N1SC(Cl)(Cl)Cl (stereo not given)
Reply: 26.6 µM (active)

* * *

- TESTED_SYSTEM: Nuclear receptor subfamily 1 group I member 2 (Homo sapiens) (UniProt O75469)
- Sequence (O75469 whole entry, looked up): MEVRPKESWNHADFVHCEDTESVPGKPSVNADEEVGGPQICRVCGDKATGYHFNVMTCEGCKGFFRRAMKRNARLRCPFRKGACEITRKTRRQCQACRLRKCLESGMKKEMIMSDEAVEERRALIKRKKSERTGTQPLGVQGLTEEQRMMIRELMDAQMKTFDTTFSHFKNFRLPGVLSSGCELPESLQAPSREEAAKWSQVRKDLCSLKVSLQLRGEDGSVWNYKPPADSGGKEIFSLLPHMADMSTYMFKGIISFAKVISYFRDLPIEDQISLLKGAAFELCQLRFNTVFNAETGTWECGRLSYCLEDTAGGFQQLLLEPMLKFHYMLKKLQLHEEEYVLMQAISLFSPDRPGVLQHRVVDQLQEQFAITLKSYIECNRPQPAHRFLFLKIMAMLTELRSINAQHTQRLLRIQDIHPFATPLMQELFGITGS
- ASSAY_METHOD_TEXT: Human pregnane X receptor (PXR) small molecule agonists, qHTS assay (AID 1346982); note: nearly all actives have a fitted effect of over 35% in size; for activation: % is set by controls: 0 for no effect and ±100 for the full control effect
- CONDITION_INFO: PXR-Luc HepG2, CYP3A4 luciferase reporter, 24 h; series mostly up to 92.4 µM
Inconclusive results are not listed. Activity calls are given as the source filed them. The call rests on the fitted dose curve; in most records, active means well fitted activation curve with a large enough effect in the repeat runs; inconclusive means weak or mixed curves; inactive means no such curve, though single readings can be large or run the other way.
EXPERIMENTAL_READOUT: activation

Worked set:
Task item: Requested field: activation. Item: CC(=O)OCC1=C(C(=O)O)N2C(=O)[C@@H](N)[C@H]2SC1
Reply: -3.67% [at 19 µM] (inactive)

Task item: Thanks! And Cc1ccc2c(c1)C1CN(C)CCC1N2 (centres undefined) ?
Reply: -3.35% [at 19 µM] (inactive)

Task item: Thanks! And Brc1c(Br)c(Br)c(Br)c(Br)c1Br ?
Reply: 1.3% [at 8.39 µM] (inactive)

Below: the item to evaluate.
Task item: Requested field: activation. Item: CCCCCCC(=O)CCCCCC/C=C/C[C@@H](O)[C@H](O)[C@@](N)(CO)C(=O)O
Reply: -4.6% [at 19 µM] (inactive)

* * *

- TESTED_SYSTEM: Thyrotropin receptor (Homo sapiens)
- ASSAY_METHOD_TEXT: qHTS assay to identify small molecule antagonists of the thyroid stimulating hormone receptor (TSHR) signaling pathway (AID 1259385); note: % is set by controls: 0 for no effect and ±100 for the full control effect; nearly all actives have a fitted effect of over 20% in size
- CONDITION_INFO: TSHR-HEK293 cAMP HTRF, TSH-stimulated antagonist mode; series mostly up to 92.4 µM
- Protocol: U.S. Tox21 Program National Center for Advancing Translational Sciences [NCATS] NIH Chemical Genomics Center [NCGC] U.S. Environmental Protection Agency [EPA] National Institutes of Environmental Health Sciences [NIEHS] National Toxicology Program [NTP] […] Tox21 Assay Protocol Summary: TSHR-Hek293 cells were dispensed at 800 cells/4uL/well in 1536-well white plates using a Multidrop dispenser. […] The fluorescence intensity in the plates was measured using an Envision plate reader. […]
Inconclusive results are not listed. Active and inactive are the calls of the source. Calls follow the shape of the full dose curve.
EXPERIMENTAL_READOUT: activity change, negative = inhibition

Task item: Requested field: activity change, negative = inhibition. Item: CCOP(=S)(OCC)Oc1ccc(Cl)cc1Cl
Reply: inactive

Task item: Thanks! And CC(C)(C)C(=O)Cl ?
Reply: inactive

Task item: Thanks! And CC(=NC#N)N(C)Cc1ccc(Cl)nc1 ?
Reply: inactive

* * *

- TESTED_SYSTEM: Estrogen receptor (Homo sapiens) (UniProt P03372)
- Sequence (P03372 whole entry, looked up): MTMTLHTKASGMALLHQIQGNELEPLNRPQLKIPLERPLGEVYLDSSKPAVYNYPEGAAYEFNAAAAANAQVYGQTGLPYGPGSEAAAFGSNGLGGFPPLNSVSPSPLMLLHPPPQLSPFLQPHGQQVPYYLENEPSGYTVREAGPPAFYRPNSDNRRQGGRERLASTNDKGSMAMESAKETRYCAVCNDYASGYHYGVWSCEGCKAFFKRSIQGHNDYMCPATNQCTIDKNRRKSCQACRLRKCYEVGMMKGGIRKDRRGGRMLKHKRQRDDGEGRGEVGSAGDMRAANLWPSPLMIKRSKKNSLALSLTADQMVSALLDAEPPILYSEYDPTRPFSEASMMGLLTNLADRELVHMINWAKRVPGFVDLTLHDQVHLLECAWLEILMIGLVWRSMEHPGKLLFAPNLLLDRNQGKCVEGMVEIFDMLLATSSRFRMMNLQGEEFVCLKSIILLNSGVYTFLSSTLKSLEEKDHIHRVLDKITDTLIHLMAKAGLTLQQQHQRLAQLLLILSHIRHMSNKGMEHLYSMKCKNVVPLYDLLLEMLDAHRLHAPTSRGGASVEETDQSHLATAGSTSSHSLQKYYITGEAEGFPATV
- ASSAY_METHOD_TEXT: qHTS assay to identify small molecule antagonists of the estrogen receptor alpha (ER-alpha) signaling pathway (AID 743069); note: % is set by controls: 0 for no effect and ±100 for the full control effect
- CONDITION_INFO: HEK293 ER-alpha-UAS-bla, beta-lactamase ratio, antagonist mode; series mostly up to 69.4 µM
Records with an inconclusive call do not appear. The source made the active and inactive calls. Calls follow the shape of the dose curve; as a rule, active = well fitted curve in the direction sought with a large enough effect in the signal ratio in the repeat runs (not every such curve was filed as active); inconclusive = weak or mixed curves, or effect the other way; inactive = no such curve, though single readings can be large or run the other way; the % refers to the signal ratio.
Bench note: report the call from 1.0 = active, 0.0 = inactive

Task item: What was the test verdict on CC1NCCOC1c1ccccc1 (stereo unspecified) ?
Reply: 0.0

* * *

- ASSAY_METHOD_TEXT: qHTS assay for identifying genotoxic compounds that show differential cytotoxicity against isogenic chicken DT40 cell lines with known DNA damage response pathways - Rev3 mutant cell line (AID 743014); note: nearly all actives have a fitted effect of over 55% in size
- CONDITION_INFO: chicken DT40 Rev3-/- viability, CellTiter-Glo, 40 h; series mostly up to 68.4 µM
Results filed as inconclusive are left out. Active and inactive are the calls of the source. Calls come from the whole dose curve; as a rule, active = well fitted cell-killing curve with a large enough effect in the repeat runs; inconclusive = weak or mixed curves, or effect the other way; inactive = no such curve, though single readings can be large or run the other way.
Bench note: report the call from active, inactive

Worked set:
Task item: What was the test verdict on CCCC(C)(COC(N)=O)COC(N)=O ?
Reply: inactive

Task item: Thanks! And O=C(CCl)NCO ?
Reply: inactive

Task item: Thanks! And Oc1ccc2c3c1O[C@H]1[C@@H](O)C=C[C@H]4[C@@H](C2)NCC[C@@]341 ?
Reply: inactive

Others:
Task item: What was the test verdict on O=CCCl ?
Reply: active

Task item: Thanks! And C=C1C[C@@H]2[C@H](CC[C@]3(C)C(=O)CC[C@@H]23)[C@@]2(C)C=CC(=O)C=C12 ?
Reply: active

Task item: Thanks! And c1ccc2c(c1)CCNC2 ?
Reply: inactive

Task item: Thanks! And CN(CCO)CCO ?
Reply: inactive

* * *

- TESTED_SYSTEM: Nuclear receptor subfamily 1 group I member 2 (Homo sapiens) (UniProt O75469)
- ASSAY_METHOD_TEXT: Human pregnane X receptor (PXR) small molecule agonists, qHTS assay (AID 1346982); note: nearly all actives have a fitted effect of over 35% in size; for activation: % is set by controls: 0 for no effect and ±100 for the full control effect
- CONDITION_INFO: PXR-Luc HepG2, CYP3A4 luciferase reporter, 24 h; series mostly up to 92.4 µM
Results filed as inconclusive are left out. Calls of active or inactive are those of the source. The call rests on the fitted dose curve; in most records, active means well fitted activation curve with a large enough effect in the repeat runs; inconclusive means weak or mixed curves; inactive means no such curve, though single readings can be large or run the other way.
Bench note: report the call from class 1 (active), class 0 (inactive)

Task item: What was the test verdict on COC(=O)c1ccc(CBr)cc1 ?
Reply: class 1

Task item: Thanks! And CCC(C)C(C)(COC(N)=O)COC(N)=O (centres undefined) ?
Reply: class 0

Task item: Thanks! And CN=CNc1ccc(C)cc1C ?
Reply: class 0

Task item: Thanks! And ClCC1CO1 (centres undefined) ?
Reply: class 0

Task item: Thanks! And COc1cccc(C=O)c1 ?
Reply: class 0

Proceed to the following item.
Task item: What was the test verdict on CCNP(=S)(OC)O/C(C)=C/C(=O)OC(C)C (centres undefined) ?
Reply: class 1

* * *

- TESTED_SYSTEM: Peroxisome proliferator-activated receptor gamma (Homo sapiens) (UniProt P37231)
- Sequence (P37231 whole entry, looked up): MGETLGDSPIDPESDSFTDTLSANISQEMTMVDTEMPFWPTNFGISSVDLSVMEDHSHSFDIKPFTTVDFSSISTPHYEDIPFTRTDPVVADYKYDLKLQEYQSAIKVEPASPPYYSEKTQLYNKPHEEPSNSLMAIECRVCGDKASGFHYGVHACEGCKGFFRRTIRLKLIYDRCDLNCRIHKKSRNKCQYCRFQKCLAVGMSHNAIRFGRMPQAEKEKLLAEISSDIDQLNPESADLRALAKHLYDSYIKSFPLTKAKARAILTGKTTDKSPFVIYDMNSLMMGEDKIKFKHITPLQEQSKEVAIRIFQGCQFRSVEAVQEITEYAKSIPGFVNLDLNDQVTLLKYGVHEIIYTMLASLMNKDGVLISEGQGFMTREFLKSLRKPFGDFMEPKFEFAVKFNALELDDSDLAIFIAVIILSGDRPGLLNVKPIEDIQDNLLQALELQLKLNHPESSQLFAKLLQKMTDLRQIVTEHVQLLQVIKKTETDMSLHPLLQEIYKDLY
- ASSAY_METHOD_TEXT: qHTS assay to identify small molecule agonists of the peroxisome proliferator-activated receptor gamma (PPARg) signaling pathway (AID 743094); note: % is set by controls: 0 for no effect and ±100 for the full control effect
- CONDITION_INFO: HEK293H PPARg-UAS-bla, beta-lactamase FRET ratio, 17 h; series mostly up to 57 µM
Records with an inconclusive call do not appear. Activity calls are given as the source filed them. The call rests on the fitted dose curve; in most records, active means well fitted activation curve with a large enough effect in the signal ratio in the repeat runs (not every such curve was filed as active); inconclusive means weak or mixed curves, or effect the other way; inactive means no such curve, though single readings can be large or run the other way; the % refers to the signal ratio.
EXPERIMENTAL_READOUT: activation

Worked set:
Task item: Requested field: activation. Item: CCOc1cc(OP(=S)(OC)OC)nc(CC)n1
Reply: inactive

Task item: Thanks! And ClCCCCl ?
Reply: inactive

Task item: Thanks! And CC[C@H](O)C(C[C@H](C)N(C)C)(c1ccccc1)c1ccccc1 ?
Reply: inactive

Task item: Thanks! And CCOC(=O)c1ncn2c1CN(C)C(=O)c1c(I)cccc1-2 ?
Reply: inactive

Task item: Thanks! And Cc1cc(OC(=O)N(C)C)nn1C(=O)N(C)C ?
Reply: inactive

Others:
Task item: Requested field: activation. Item: CCOC(=O)NC(C)(C)Cc1ccc(Cl)cc1
Reply: inactive

Task item: Thanks! And c1cncc([C@@H]2CCCCN2)c1 ?
Reply: inactive

Task item: Thanks! And CC1=C2[C@H]3OC(=O)[C@@H](C)[C@@H]3CC[C@@]2(C)C=CC1=O ?
Reply: inactive
